Entry source: patent US20250042994A1

assayed_target: T1, Human CD19-his protein (human, UniProt P15391 20-291)
T1 construct: bought protein; also called human CD19 protein; recombinant human CD19-His; not shown: His tag
T1 sequence (looked up): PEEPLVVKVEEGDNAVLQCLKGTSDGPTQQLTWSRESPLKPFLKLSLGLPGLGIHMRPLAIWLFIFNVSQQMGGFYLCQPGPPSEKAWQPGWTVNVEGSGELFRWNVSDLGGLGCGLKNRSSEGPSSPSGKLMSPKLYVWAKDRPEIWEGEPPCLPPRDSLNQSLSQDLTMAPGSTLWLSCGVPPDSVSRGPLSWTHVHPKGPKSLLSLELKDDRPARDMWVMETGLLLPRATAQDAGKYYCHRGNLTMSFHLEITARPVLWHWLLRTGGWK
test_details: ELISA, antibody at 0.001 nM
measured_quantity: OD450
Write the value as a bare number.

Answered cases to consult:
binder: F4.41.1 (antibody, human IgG1, V domains shown, human-murine chimeric antibody, human IgG1) VH: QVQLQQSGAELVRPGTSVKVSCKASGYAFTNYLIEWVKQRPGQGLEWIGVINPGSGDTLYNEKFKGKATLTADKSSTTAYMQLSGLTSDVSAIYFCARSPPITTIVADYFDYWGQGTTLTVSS VL: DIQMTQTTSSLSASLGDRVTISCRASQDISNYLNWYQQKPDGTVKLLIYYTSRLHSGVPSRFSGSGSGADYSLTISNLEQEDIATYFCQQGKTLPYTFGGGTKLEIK
result: 0.05

binder: F4.78.1 (antibody, human IgG1, V domains shown, human-murine chimeric antibody, human IgG1) VH: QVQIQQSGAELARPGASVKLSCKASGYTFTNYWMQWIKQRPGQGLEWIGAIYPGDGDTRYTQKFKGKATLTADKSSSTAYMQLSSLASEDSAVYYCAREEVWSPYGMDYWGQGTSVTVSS VL: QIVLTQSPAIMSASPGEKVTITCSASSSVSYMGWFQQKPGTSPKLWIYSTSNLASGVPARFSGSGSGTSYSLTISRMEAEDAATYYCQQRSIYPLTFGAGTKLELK
result: 0.08

Input F4.4.6 (antibody, human IgG1, V domains shown, human-murine chimeric antibody, human IgG1) VH: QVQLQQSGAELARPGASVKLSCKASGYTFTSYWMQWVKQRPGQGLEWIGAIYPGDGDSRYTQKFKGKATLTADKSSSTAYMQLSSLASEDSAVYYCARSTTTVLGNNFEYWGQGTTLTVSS VL: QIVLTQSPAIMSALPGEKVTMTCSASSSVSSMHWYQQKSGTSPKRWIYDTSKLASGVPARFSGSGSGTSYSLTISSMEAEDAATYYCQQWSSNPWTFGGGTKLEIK . Output OD450: 0.06
